Target: human ether-à-go-go-related gene (hERG) potassium channel (human);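 also: peak tail current of the secondary pulse compared with the same well before compound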
Sequence (Q12809 whole entry, looked up): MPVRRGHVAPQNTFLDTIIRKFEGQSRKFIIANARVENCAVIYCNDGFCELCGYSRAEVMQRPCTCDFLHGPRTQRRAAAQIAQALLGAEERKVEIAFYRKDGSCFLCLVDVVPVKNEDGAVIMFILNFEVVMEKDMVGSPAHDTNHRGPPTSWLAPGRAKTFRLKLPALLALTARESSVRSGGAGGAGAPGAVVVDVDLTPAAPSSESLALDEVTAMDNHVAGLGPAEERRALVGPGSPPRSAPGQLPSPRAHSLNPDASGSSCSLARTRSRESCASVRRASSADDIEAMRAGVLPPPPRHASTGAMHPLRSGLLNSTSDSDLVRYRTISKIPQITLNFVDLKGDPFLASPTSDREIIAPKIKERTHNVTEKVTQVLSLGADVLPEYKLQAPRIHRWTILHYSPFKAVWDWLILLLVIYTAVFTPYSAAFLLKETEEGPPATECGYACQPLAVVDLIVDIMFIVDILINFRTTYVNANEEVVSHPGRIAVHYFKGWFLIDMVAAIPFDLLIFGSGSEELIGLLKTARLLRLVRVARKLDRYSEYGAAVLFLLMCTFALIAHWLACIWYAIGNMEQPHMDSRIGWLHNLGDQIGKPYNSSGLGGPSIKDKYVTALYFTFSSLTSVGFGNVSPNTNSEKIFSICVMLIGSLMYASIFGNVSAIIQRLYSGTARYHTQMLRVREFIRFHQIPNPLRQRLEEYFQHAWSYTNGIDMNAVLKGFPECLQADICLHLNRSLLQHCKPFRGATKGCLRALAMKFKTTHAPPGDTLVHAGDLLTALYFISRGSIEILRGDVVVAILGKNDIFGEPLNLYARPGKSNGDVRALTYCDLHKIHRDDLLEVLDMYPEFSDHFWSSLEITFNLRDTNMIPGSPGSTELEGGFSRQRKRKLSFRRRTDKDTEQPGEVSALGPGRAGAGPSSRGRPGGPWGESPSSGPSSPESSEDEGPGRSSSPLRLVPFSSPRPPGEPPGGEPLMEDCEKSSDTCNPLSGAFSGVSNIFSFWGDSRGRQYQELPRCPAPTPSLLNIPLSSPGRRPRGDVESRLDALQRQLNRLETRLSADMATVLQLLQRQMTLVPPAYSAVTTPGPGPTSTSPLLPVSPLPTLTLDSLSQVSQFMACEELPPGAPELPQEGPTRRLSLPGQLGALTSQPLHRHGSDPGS
Experiment: primary screen, population patch clamp on CHO cells stably expressing hERG; higher = less effect of the substance
Hit rate of the full screen: of about 310,000 compounds, about 14,000 (4.5%) showed an effect of 50% or more. Effects have a minus sign here. The list comes from a sample in which strong results are over-represented; it also holds close analogues and randomly drawn compounds.
readout kind: hERG current change (%, negative = inhibition) at 10uM (%)
Expressed in %, but write only the number.

Check out these entries, answers already filled in.
smiles string | u | meas value
O=C(CCNC(=O)c1ccc([N+](=O)[O-])cc1)NCCc1ccc(Cl)cc1 | % | -40.4
COc1ccc(S(=O)(=O)N2CCN(C(=O)COc3ccc(C)c(C)c3)CC2)cc1OC | % | -37.1
COc1cc(/C=C/C(=O)NCc2cccnc2)cc(OC)c1OC | % | 0.841
CC(=O)Oc1ccc(N2C(=O)CCC2=O)cc1 | % | 16

Need hERG current change (%, negative = inhibition) at 10uM, item `CCn1c(COc2cc(C)ccc2C(C)C)nnc1SCC(=O)Nc1nccs1`
5.52
